molecular target: hERG channel (Homo sapiens, UniProt Q12809); construct: host or cells: CHO (Chinese Hamster Ovary), stably transfected; test: hERG channel assay; type: cell-based; details: human, CHO cells stably expressing hERG, pH 7.4; CHO cell line expressing hERG, whole cell recordings
Sequence (Q12809 whole entry): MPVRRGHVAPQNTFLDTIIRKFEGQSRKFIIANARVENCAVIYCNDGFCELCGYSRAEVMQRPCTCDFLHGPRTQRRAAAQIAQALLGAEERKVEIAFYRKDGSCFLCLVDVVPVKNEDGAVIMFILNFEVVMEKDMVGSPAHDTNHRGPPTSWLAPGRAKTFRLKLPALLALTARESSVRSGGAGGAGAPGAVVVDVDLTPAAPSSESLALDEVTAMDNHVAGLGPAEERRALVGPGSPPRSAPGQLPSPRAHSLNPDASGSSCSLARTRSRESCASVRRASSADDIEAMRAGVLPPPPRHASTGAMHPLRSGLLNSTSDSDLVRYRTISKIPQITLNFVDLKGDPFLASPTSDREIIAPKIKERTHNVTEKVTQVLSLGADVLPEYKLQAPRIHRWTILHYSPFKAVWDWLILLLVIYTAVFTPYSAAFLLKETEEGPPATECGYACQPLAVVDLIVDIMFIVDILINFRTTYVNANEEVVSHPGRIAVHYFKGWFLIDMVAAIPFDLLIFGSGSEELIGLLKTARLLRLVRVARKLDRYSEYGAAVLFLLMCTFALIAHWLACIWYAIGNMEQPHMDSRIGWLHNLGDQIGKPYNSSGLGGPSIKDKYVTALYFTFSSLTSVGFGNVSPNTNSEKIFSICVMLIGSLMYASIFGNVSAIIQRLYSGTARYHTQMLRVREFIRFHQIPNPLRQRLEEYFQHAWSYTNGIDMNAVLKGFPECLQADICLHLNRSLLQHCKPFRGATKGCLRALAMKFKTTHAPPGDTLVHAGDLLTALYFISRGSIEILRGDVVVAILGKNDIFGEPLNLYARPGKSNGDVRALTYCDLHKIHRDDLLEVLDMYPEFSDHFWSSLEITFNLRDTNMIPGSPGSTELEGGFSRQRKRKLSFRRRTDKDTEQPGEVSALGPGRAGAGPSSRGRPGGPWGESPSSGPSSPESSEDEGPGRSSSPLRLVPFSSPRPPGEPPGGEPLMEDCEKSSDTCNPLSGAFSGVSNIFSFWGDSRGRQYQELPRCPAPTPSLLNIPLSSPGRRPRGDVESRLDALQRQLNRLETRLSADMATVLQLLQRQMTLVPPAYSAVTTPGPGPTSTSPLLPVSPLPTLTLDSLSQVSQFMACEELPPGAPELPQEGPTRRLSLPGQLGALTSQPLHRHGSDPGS
property: IC50 (µM)

{"columns": ["compound", "property", "numericValue"],
 "data": [
  ["CCC(CC)Oc1ccc2c(COCC3CCNCC3)nn(Cc3ccc(Cl)cc3)c2n1", "IC50", 10]
]}

###

test: Caco-2 permeability testing; type: in vitro ADME, human; details: human, Caco-2, pH 7.4, Caco-2, A-B, 90 min; read-out: Permeability (second figure of Efflux/permeability), Papp (A-B)
We begin with a simple list: items and their reported Papp A→B at 90 min, 10 µM.

{"columns": ["compound", "Papp A→B at 90 min, 10 µM"],
 "data": [
  ["CC(C)N1CCC(NC(=O)c2nn(C)c3nc(N4CCCCCC4)ccc23)CC1", "12 ×10⁻⁶ cm/s"],
  ["CCC(CC)Oc1ccc2c(C(=O)NC3CCN(CC4CCCCC4)CC3)nn(C)c2n1", "6.6 ×10⁻⁶ cm/s"],
  ["CC(C)N1CCC(NC(=O)c2nn(C)c3nc(N4CCCCCCC4)ccc23)CC1", "9.6 ×10⁻⁶ cm/s"],
  ["CC1CCC(C)N1CCN1CCC(NC(=O)c2nn(C)c3nc(N4CCCCCC4)ccc23)CC1 (stereo not shown)", "6.7 ×10⁻⁶ cm/s"],
  ["Cn1nc(-c2cnc(C(=O)NCc3cccs3)s2)c2ccc(N3CCCCCC3)nc21", "6 ×10⁻⁶ cm/s"],
  ["CCCC(C)CN1CCC(NC(=O)c2nn(C)c3nc(N4CCCCCCC4)ccc23)CC1 (stereo not shown)", "0.4 ×10⁻⁶ cm/s"],
  ["CCN1CCC(NC(=O)c2nn(C)c3nc(N4CCCCCCC4)ccc23)CC1", "6.4 ×10⁻⁶ cm/s"],
  ["Cn1nc(C(=O)NC2CCN(S(C)(=O)=O)CC2)c2ccc(N3CCCCCC3)nc21", "50 ×10⁻⁶ cm/s"],
  ["CCC(CC)Oc1ccc2c(COCC3CCCNC3)nn(Cc3ccc(Cl)cc3)c2n1.O=C(O)C(F)(F)F (stereo not shown)", "0.4 ×10⁻⁶ cm/s"],
  ["CCC(CC)Oc1ccc2c(C(=O)NC3CCNCC3)n[nH]c2n1", "3.5 ×10⁻⁶ cm/s"],
  ["Cn1nc(C(=O)NC2CCN(CCN3CCCC3)CC2)c2ccc(N3CCCCCC3)nc21", "9.2 ×10⁻⁶ cm/s"],
  ["Cn1nc(C(=O)NC2CCN(CCN3CCC(CO)CC3)CC2)c2ccc(N3CCCCCC3)nc21", "2 ×10⁻⁶ cm/s"],
  ["CCCN1CCC(NC(=O)c2nn(C)c3nc(NC4CCCCCCC4)ccc23)CC1", "5.9 ×10⁻⁶ cm/s"],
  ["CN1CCC(NC(=O)c2nn(C)c3nc(N4CCCCCCC4)ccc23)CC1", "9.1 ×10⁻⁶ cm/s"],
  ["CCN1CCC(NC(=O)c2nn(C)c3nc(N4CCCCCC4)ccc23)CC1", "15.3 ×10⁻⁶ cm/s"],
  ["Cn1nc(C(=O)NC2CCN(CC3CCCCC3)CC2)c2ccc(N3CCCCCCC3)cc21", "1.4 ×10⁻⁶ cm/s"],
  ["Cn1nc(C(=O)NC2CCN(CCN3CCCC3)CC2)c2ccc(NC3CCCCCCC3)nc21", "0.9 ×10⁻⁶ cm/s"],
  ["Cn1nc(CCCN2CCCCC2CO)c2ccc(N3CCCCCCC3)nc21 (stereo not shown)", "15 ×10⁻⁶ cm/s"],
  ["O=C(NC1CCNCC1)c1nn(C(=O)C2CCCCC2)c2nc(N3CCCCCC3)ccc12.O=C(O)C(F)(F)F.O=C(O)C(F)(F)F.O=C(O)C(F)(F)F", "5 ×10⁻⁶ cm/s"],
  ["Clc1ccc(Cn2nc(COCCCN3CCCCC3)c3ccc(N4CCCCCC4)nc32)cc1", "0.44 ×10⁻⁶ cm/s"],
  ["O=C(NC1CCN(CCN2CCCCC2)CC1)c1nn(CC(F)F)c2nc(N3CCCCCC3)ccc12", "3.3 ×10⁻⁶ cm/s"],
  ["Cn1nc(C(=O)NC2CCN(CCN3CCCCC3)CC2)c2ccc(N3CCCCCC3)nc21", "10.5 ×10⁻⁶ cm/s"],
  ["Cn1nc(C(=O)NC2CCN(CC3CCCCC3)CC2)c2ccc(N3CCCCCCC3)nc21", "1.7 ×10⁻⁶ cm/s"],
  ["Cc1ccc(C(=O)Nc2nn(C)c3nc(N4CCCCCC4)ccc23)s1", "9.7 ×10⁻⁶ cm/s"],
  ["COc1ccc(CN2CCC(NC(=O)c3nn(C)c4nc(N5CCCCCC5)ccc34)CC2)cc1", "0.5 ×10⁻⁶ cm/s"],
  ["Cn1nc(C(=O)NC2CCN(CC(F)F)CC2)c2ccc(N3CCCCCC3)nc21", "13.8 ×10⁻⁶ cm/s"],
  ["CC1CCCCN1CCN1CCC(NC(=O)c2nn(C)c3nc(N4CCCCCC4)ccc23)CC1 (stereo not shown)", "3 ×10⁻⁶ cm/s"],
  ["Cn1nc(C(=O)NC2CCN(CCN3CCCCCC3)CC2)c2ccc(N3CCCCCCC3)nc21", "1.3 ×10⁻⁶ cm/s"],
  ["Clc1ccc(Cn2nc(COCCN3CCCC3)c3ccc(N4CCCCCCC4)nc32)cc1", "7.8 ×10⁻⁶ cm/s"],
  ["Cn1nc(C(=O)NC2CCN(CCN3CCOCC3)CC2)c2ccc(NC3CCCCCCC3)nc21", "10.9 ×10⁻⁶ cm/s"],
  ["Cn1nc(CCCN2CCCC2)c2ccc(N3CCCCCCC3)nc21", "17 ×10⁻⁶ cm/s"],
  ["Cn1nc(C(=O)NC2CCN(CC3CCOCC3)CC2)c2ccc(N3CCCCCC3)nc21", "5.4 ×10⁻⁶ cm/s"],
  ["Cn1nc(C(=O)NC2CCNCC2)c2ccc(N3CCCCCC3)nc21.O=C(O)C(F)(F)F.O=C(O)C(F)(F)F", "5.5 ×10⁻⁶ cm/s"],
  ["Cn1nc(C(=O)NCc2cccs2)c2cc(N3CCCCC3)cnc21", "22 ×10⁻⁶ cm/s"]
]}

###

tested on: HCV genotype 1b; assay: HCV 1b replicon luciferase assay; type: cell-based; details: Hepatitis C virus, Huh-7, 48 h, Table 1; Huh7 HCV 1b replicon, luciferase reporter, 48 hours; read-out: 1b EC50

{"columns": ["compound", "EC50 / µM"],
 "data": [
  ["Cn1nc(-c2nnc(C3CCN(CC(F)F)C3)o2)c2ccc(N3CCCCCCC3)nc21 (centres unmarked) [compound 1366]", 4],
  ["COc1ccc(CN2CCC(NC(=O)c3nn(C)c4nc(N5CCCCCC5)ccc34)CC2)cc1 [compound 1044]", 0.76],
  ["Cn1nc(C(=O)NC2CCNCC2)c2ccc(OCc3ccccc3-c3ccc(Cl)cc3)nc21 [compound 1102]", 0.62],
  ["Cn1nc(C(=O)NC2CCNCC2)c2ccc(OCc3ccccc3-c3cccc(Cl)c3)nc21 [compound 1088]", 1.4],
  ["CCC(CC)Oc1ccc2c(NC(=O)C3CCNCC3)nn(C)c2n1 [compound 962]", 4.4],
  ["CC(C)CN1CCC(NC(=O)c2nn(C)c3nc(N4CCCCCCC4)ccc23)CC1 [compound 1236]", 6.3],
  ["CN(c1ccc2c(C(=O)NC3CCNCC3)nn(C)c2n1)C1CCCCCC1 [compound 891]", 1.1],
  ["Cn1nc(COCC2CCCNC2)c2ccc(N3CCCCCC3)nc21 (centres unmarked) [compound 986]", 7.9],
  ["Cn1nc(C(=O)NC2CCN(CC3CCCCC3)CC2)c2ccc(NC3CCCCCC3)nc21 [compound 1073]", 0.67],
  ["Cn1nc(C(=O)NC2CCN(CC3CCCCC3)CC2)c2ccc(NC3CCCCCCC3)nc21 [compound 1076]", 0.6],
  ["CCC(CC)Oc1ccc2c(COCCN3CCCCC3)nn(Cc3ccc(Cl)cc3)c2n1 [compound 792]", 4.6],
  ["CN1C2CCC1CC(NCc1nn(C)c3nc(N4CCCCCC4)ccc13)C2 (centres unmarked) [compound 910]", 3.9],
  ["O=C(NC1CCNCC1)c1nn(Cc2cccc(Cl)c2)c2nc(N3CCCCCC3)ccc12 [compound 854]", 7.2],
  ["Cn1nc(CN2CCCC2CO)c2ccc(N3CCCCCC3)nc21 (centres unmarked) [compound 791]", 8.5],
  ["Cn1nc(C(=O)NC2CCNCC2)c2ccc(OC3CCCC3)nc21 [compound 912]", 6.9],
  ["O=C(N[C@H]1CCNC1)c1nn(Cc2ccc(Cl)cc2)c2nc(N3CCCCCC3)ccc12 [compound 707]", 3.3],
  ["CC1CCCCN1CCCc1nn(C)c2nc(N3CCCCCCC3)ccc12 (centres unmarked) [compound 1454]", 1.6]
]}

# credit: patent US20120232062A1
